experiment: self-splicing fitness, log relative to wild type (ln ratio); higher = more splicing; Tetrahymena group I intron in knt gene, E. coli kanamycin selection, DiMSum; sequences stand for … in CUCUCU…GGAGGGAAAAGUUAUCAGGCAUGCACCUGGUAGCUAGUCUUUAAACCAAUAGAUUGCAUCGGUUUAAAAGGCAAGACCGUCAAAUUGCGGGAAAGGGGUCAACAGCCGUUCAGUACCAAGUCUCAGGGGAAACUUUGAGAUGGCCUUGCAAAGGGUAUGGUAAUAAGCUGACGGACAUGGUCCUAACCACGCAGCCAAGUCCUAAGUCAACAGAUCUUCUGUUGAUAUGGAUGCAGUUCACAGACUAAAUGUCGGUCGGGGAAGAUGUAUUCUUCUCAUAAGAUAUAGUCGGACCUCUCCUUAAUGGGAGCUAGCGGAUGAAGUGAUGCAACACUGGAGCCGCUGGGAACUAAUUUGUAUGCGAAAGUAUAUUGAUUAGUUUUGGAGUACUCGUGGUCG; conditions: 30 °C;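 further: selection with 25 µg/mL kanamycin versus none on LB agar overnight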
experimental_readout: self-splicing fitness (ln)
Enter the number alone.

Some entries whose results are on file:
residue_string	self-splicing fitness (ln)
UUAGAGCAAUAUUACGAUCC	-2.97
GCUUAGCAAUAUUACGUACA	-1.38
UUCGAGCAAUAUUACGUGCU	-2.02
AUUUAGCAAUAUUACGGGUA	-2.72

The record that follows has no self-splicing fitness (ln) shown yet.
// recorded self-splicing fitness (ln) for CAAAAGCAAUAUUACGAAAA : -2.35

----------
test: self-splicing fitness, log relative to wild type (ln ratio); higher = more splicing; Tetrahymena group I intron in knt gene, E. coli kanamycin selection, DiMSum; sequences stand for … in CUCUCU…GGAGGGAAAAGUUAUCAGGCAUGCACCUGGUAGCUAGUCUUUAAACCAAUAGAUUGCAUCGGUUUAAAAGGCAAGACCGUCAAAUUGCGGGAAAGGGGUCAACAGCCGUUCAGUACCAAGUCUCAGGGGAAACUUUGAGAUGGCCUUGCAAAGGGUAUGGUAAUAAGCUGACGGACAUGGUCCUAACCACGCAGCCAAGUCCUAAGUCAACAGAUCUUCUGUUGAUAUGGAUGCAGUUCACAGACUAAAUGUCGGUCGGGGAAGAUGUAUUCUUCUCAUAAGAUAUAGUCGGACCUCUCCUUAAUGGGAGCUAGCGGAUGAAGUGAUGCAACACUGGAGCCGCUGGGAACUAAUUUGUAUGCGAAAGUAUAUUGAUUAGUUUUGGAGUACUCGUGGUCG; conditions: 30 °C
experimental_readout: self-splicing fitness (ln)
The response must contain the number and no unit.

Solved entries:
residue_string	result_value
CCACAGCAAUAUUACGGCGC	-3.56
GGCCAGCAAUAUUACGAAGC	-2
ACCCAGCAAUAUUACGCUAC	-4.01
CUUGAGCAAUAUUACGGCGU	-3.95
CGCCAGCAAUAUUACGUCUU	-3.58
CGAUAGCAAUAUUACGGAAA	-3.34
GUCCAGCAAUAUUACGCCUC	-0.866
GCUGAGCAAUAUUACGCCAC	-4.02
CGUGAGCAAUAUUACGAGAA	-3.1
CUUCAGCAAUAUUACGAGCG	-0.695

Record AUCGAGCAAUAUUACGCAUG , field self-splicing fitness (ln): -3.62

The sequence UUCUAGCAAUAUUACGCCAU showed self-splicing fitness (ln) equal to -2.66

Per the records, this sequence ( UGAGAGCAAUAUUACGACCA ) has self-splicing fitness (ln) equal to -1.91

GCAUAGCAAUAUUACGCGAG has a reported self-splicing fitness (ln) of -2.42

Short answer for CGGUAGCAAUAUUACGAACU : self-splicing fitness (ln) was -1.3

Looking up AUGCAGCAAUAUUACGUACU , I found its self-splicing fitness (ln) recorded as 0.346

Looking up ACAUAGCAAUAUUACGCUGG , I see its self-splicing fitness (ln) listed as -2.36
